Data provenance is patent US20220332795A1.

Entries and their RLU values follow.
# target: T1, recombinant biotinylated CD71 extracellular domain (Sino Biologics) with an N-terminal 6His tag (human, UniProt P02786 89-760, biotinylated (site not stated))
# T1 construct: extracellular domain; also called hCD71; huCD71 ECD
# T1 sequence (P02786 other isoform, or with tags, fused parts or gaps): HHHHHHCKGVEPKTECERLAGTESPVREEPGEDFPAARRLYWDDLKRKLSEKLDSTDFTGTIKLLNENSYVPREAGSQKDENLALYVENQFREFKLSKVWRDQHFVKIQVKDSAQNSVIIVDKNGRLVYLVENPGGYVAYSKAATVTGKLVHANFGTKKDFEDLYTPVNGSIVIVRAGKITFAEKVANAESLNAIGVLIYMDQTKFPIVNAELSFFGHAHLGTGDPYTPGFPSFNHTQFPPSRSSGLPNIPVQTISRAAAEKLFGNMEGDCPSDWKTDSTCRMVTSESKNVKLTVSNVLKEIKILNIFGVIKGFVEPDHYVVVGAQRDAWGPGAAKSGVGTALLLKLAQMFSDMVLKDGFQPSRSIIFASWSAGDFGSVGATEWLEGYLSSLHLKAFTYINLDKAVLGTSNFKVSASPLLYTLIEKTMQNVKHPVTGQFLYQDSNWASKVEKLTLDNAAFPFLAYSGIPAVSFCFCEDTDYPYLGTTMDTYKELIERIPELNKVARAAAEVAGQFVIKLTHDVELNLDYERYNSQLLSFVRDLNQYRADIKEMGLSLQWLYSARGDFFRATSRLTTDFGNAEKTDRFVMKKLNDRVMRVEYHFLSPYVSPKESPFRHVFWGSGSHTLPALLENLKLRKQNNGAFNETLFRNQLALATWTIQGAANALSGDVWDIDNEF
# test.name: primary solution ELISA screen
Answer with a number only, understood to be in RLU.

INSERT INTO assay_data (binder, reported) VALUES
  ('SEQ ID NO 6 (designed binder, not shown: small tags and cut ends, FN3 domain, hit of the apical domain panning) MLPAPKNLVVSRVTEDSARLSWTAPDAAFDSFPIIYMETFSRGEAIVLTVPGSERSYDLTGLKPGTEYRVPIGGVKGGSSSCPLSAIFTT', 315000),
  ('SEQ ID NO 68 (designed binder, not shown: small tags and cut ends, FN3 domain, hit of the apical domain panning) MLPAPKNLVVSRVTEDSARLSWTAPDAAFDSFIIPYAEVRPDGEAIVLTVPGSERSYDLTGLKPGTEYSVLIHGVKGGHLSDPLSAISTT', 521000),
  ('SEQ ID NO 14 (designed binder, not shown: small tags and cut ends, FN3 domain, hit of the apical domain panning) MLPAPKNLVVSRVTEDSARLSWTAPDAAFDSFPIYYVENVVWGEAIVLTVPGSERSYDLTGLKPGTEYWEVIIGVKGGQCSRPLSAIFTT', '1.4e+06');

Next binder, RLU to be filled in.
### Prompt Data request, read-out RLU, for SEQ ID NO 31 (designed binder, not shown: small tags and cut ends, FN3 domain, hit of the apical domain panning) MLPAPKNLVVSRVTEDSARLSWTAPDAAFDSFTIEYSEHPIDGEAIPLFVPGSERSYDLTGLKPGTEYYVRIHGVKGGWFSHPLWAFFTT
### Response 642000
